Test: Half life in Sprague-Dawley rat at 1.0 mg/kg, iv
Assay type: ADME, organism-based
Design: dose 1 mg/kg, route intravenous
Details: in vivo
Property: half-life (h)

CC(C)N1C(=O)[C@H](NC(=O)[C@@H](Cc2ccccc2OC(F)(F)F)NC(=O)OC(C)(C)C)CN(CC2CC2)c2ccccc21; 2.4
CC(C)(C)OC(=O)N[C@H](Cc1ccccc1C(F)(F)F)C(=O)N[C@@H]1CN(CC2CC2)c2ccccc2N(CC(F)(F)F)C1=O; 2.4
CC(C)(C)OC(=O)N[C@H](Cc1ccccc1)C(=O)N[C@@H]1CN(CC2CC2)c2ccccc2N(CC(F)(F)F)C1=O; 3.1
CC(C)N1C(=O)[C@H](NC(=O)[C@@H](Cc2ccccc2C(F)(F)F)NC(=O)OC(C)(C)C)CN(CC2CC2)c2ccccc21; 2.5

====

Test: Cmax in Sprague-Dawley rat at 3.0 mg/kg, po
Details: in vivo
Property: Cmax (nM)

CC(C)(C)OC(=O)N[C@H](Cc1ccccc1)C(=O)N[C@@H]1CN(CC2CC2)c2ccccc2N(CC(F)(F)F)C1=O; 30

(I) CC(C)(C)OC(=O)N[C@H](Cc1ccccc1C(F)(F)F)C(=O)N[C@@H]1CN(CC2CC2)c2ccccc2N(CC(F)(F)F)C1=O
(II) CC(C)N1C(=O)[C@H](NC(=O)[C@@H](Cc2ccccc2C(F)(F)F)NC(=O)OC(C)(C)C)CN(CC2CC2)c2ccccc21
(III) CC(C)N1C(=O)[C@H](NC(=O)[C@@H](Cc2ccccc2OC(F)(F)F)NC(=O)OC(C)(C)C)CN(CC2CC2)c2ccccc21
Provide the items ranked by increasing Cmax. Field: ranking. Enter the labels in the order requested.
III, I, II
(III: 40 nM, I: 60 nM, II: 150 nM)

====

Target: Sodium channel protein type 9 subunit alpha (Homo sapiens)
Experiment: Inhibition of human Nav1.7 sodium channel expressed in HEK293 cells by FRET assay
Type: cell-based
Settings: hek293
Property: IC50 (nM)
A number alone suffices; assume nM.

Please look up its IC50: CC(C)N1C(=O)[C@H](NC(=O)[C@@H](Cc2ccccc2F)NC(=O)OC(C)(C)C)CN(CC2CC2)c2ccccc21 (stereo in doubt; 14)
102

====

Target: Sodium channel protein type 9 subunit alpha (Homo sapiens)
Assay: Inhibition of human Nav1.7 sodium channel expressed in HEK293 cells at a membrane potential of -70 mV by whole cell voltage clamp technique
Format: cell-based
Property: IC50 (nM)
Hi! Could you send only the number? It should be in nM, unit omitted.

Value lookup for IC50; key = CC(C)(C)OC(=O)N[C@H](Cc1ccccc1)C(=O)N[C@@H]1CN(CC2CC2)c2ccccc2N(CC(F)(F)F)C1=O
1.54

====

Target: Sodium channel protein type 9 subunit alpha (Homo sapiens, UniProt Q15858)
Sequence (Q15858 whole entry): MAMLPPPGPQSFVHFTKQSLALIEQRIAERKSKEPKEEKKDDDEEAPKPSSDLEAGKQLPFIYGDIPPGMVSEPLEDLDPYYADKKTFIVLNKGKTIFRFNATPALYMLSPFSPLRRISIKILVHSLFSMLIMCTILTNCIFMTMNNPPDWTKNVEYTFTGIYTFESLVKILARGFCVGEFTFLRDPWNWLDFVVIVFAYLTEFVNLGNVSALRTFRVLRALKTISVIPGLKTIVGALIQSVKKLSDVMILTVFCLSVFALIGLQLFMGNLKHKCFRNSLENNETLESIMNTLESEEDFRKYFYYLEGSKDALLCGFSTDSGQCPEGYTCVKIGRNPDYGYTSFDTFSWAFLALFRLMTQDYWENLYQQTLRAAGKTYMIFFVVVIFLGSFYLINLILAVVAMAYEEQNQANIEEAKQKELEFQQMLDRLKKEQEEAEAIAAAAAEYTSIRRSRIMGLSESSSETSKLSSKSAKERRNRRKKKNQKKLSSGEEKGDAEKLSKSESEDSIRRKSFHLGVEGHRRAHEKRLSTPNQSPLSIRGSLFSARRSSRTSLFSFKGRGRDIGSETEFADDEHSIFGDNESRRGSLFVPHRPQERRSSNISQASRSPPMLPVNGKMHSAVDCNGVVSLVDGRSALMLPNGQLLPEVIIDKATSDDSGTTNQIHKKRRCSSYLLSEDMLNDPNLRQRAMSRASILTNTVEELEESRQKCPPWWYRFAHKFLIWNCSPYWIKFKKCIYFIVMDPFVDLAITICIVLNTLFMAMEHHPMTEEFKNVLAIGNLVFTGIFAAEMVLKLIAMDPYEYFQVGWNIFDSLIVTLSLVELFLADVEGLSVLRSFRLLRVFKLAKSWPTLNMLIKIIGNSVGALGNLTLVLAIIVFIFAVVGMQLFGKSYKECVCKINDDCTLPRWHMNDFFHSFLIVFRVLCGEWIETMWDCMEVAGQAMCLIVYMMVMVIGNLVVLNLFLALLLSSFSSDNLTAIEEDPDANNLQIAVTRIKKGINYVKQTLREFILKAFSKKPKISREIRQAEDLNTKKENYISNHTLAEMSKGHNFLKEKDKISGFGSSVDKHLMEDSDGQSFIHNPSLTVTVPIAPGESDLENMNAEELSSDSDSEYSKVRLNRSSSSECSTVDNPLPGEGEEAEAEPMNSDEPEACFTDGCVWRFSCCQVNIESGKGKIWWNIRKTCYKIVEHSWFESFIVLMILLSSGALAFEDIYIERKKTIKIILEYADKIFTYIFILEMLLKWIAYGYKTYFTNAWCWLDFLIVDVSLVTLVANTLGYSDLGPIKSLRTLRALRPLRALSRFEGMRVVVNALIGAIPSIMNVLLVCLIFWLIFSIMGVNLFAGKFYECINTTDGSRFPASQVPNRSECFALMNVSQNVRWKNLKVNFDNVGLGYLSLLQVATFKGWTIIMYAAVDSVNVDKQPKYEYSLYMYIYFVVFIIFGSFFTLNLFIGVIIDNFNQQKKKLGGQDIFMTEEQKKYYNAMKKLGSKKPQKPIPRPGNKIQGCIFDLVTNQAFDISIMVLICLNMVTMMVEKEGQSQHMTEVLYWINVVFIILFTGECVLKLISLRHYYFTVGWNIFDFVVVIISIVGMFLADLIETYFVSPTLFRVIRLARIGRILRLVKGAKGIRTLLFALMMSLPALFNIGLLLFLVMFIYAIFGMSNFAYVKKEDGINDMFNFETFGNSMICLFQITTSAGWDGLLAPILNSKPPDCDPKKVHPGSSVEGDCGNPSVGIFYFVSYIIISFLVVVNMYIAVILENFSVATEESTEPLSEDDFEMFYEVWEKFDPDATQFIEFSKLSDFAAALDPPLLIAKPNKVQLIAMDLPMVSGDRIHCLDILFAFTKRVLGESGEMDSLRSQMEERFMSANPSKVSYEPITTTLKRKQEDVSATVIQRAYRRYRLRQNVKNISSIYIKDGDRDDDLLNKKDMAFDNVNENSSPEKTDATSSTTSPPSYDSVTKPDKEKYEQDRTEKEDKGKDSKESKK
Experiment: Inhibition of human Nav1.7 sodium channel expressed in HEK293 cells by FRET assay
Type: cell-based
pIC50: −log10 of the molar value.
Property: pIC50

(1) CN1C(=O)[C@H](NC(=O)[C@@H](Cc2ccccc2F)NC(=O)OC(C)(C)C)CN(Cc2ccccc2)c2ccccc21
(2) CC(C)N1C(=O)[C@H](NC(=O)[C@@H](Cc2ccc(F)cc2)NC(=O)OC(C)(C)C)CN(CC2CC2)c2ccccc21
(3) CC(C)N1C(=O)[C@H](NC(=O)[C@@H](Cc2ccccc2F)NC(=O)OC(C)(C)C)CN(CC2CC2)c2ccccc21 (stereo in doubt; 22)
(4) CN1C(=O)[C@H](NC(=O)[C@@H](Cc2ccccc2F)NC(=O)OC(C)(C)C)CNc2ccccc21
hey, can you rank those compounds up there by pIC50? biggest number first please When ranking, write the labels in the order the request describes.
1, 3, 2, 4
(1: 7.60, 3: 6.99, 2: 6.71, 4: 6.39)

====

Target: Sodium channel protein type 9 subunit alpha (Homo sapiens, UniProt Q15858)
Experiment: Inhibition of human Nav1.7 sodium channel expressed in HEK293 cells by FRET assay
Format: cell-based
pIC50: −log10 of the molar value.
Property: pIC50

CC(C)N1C(=O)[C@H](NC(=O)[C@@H](Cc2c(F)cccc2F)NC(=O)OC(C)(C)C)CN(CC2CC2)c2ccccc21; 7.01
CC(C)(C)OC(=O)N[C@H](Cc1ccccc1C(F)(F)F)C(=O)N[C@@H]1CN(CC2CC2)c2ccccc2N(CC(F)(F)F)C1=O; 6.88
CC(C)N1C(=O)[C@H](NC(=O)[C@@H](Cc2ccccc2C(F)(F)F)NC(=O)OC(C)(C)C)CN(CC2CC2)c2ccccc21; 6.83
